# Test system: L1210 leukemia ip in BDF1 mice, survival T/C
# ASSAY_SUMMARY: NCI In Vivo Anticancer Drug Screen. Data for tumor model L1210 Leukemia (intraperitoneal) in B6D2F1 (BDF1) mice
# CONDITION: endpoint: mean survival time; dose: 400.0 mg/kg/injection; schedule: Q01DX009 (ip); vehicle: gum acacia; higher = longer survival
Toxic doses and inconclusive results are not listed.
QUANTITY_NAME: T/C

Query: Using the record for CC(=O)Nc1ccc2ccccc2c1-c1c(N)ccc2ccccc12 , report its T/C.
Result: 99 % of control

Query: Similarly, Cc1cc(Cl)ccc1NC(=O)Nc1ccccc1 ?
Result: 87 % of control

Query: Similarly, O=C1c2ccccc2-c2cccc3cccc1c23 ?
Result: 102 % of control

Query: Similarly, Cc1sc2ccccc2[n+]1CCC(=O)O ?
Result: 100 % of control
